Where do the numbers come from? From patent US20230242587A1.

# System: DNA with a single base mismatch
# experiment: Discrimination of single base mismatches (Tm of mismatched PNA-DNA duplex)
# Assay type: binding
# condition.description: TC mismatch; against fully matched duplex
measured.property: ΔTm (Tm), TC mismatch: number in brackets

1) G*A*T*G#T#G#A*T*A*-AEEA [compound 9] ... −27.4
2) G*A*T*G*T*G*A*T*A*-AEEA [3d] ... −26.2
3) GATGTGATA-AEEA [1a, reference compound] ... −19.2
4) G#A#T#G#T#G#A#T#A#-AEEA [2a, reference compound] ... −30.6
